Collected from the literature: IC50 of various compounds toward TYRO3 (Homo sapiens).

{"columns": ["compound", "reportedMeasurement"],
 "data": [
  ["COC[C@H](C)Nc1ncc2c(O[C@H]3CCN(C)C(C)(C)C3)ncc([C@H]3CC[C@H](O)CC3)c2n1", "≤ 100 nM"],
  ["CNS(=O)(=O)c1ccc(-c2cc([C@H]3CC[C@H](O)CC3)n3nc(N[C@@H](C)CC(F)(F)F)ncc23)cn1", "≤ 100 nM"],
  ["COCC(C)Nc1ncc2c(-c3ccc(C(C)N4CCOCC4)cc3)cc(C3CCC(O)CC3)n2n1 (mixture of isomers)", "≤ 100 nM"],
  ["CC(=O)NCC1(c2cc(-c3ncnc4[nH]ccc34)ccn2)Cc2ccccc2C1", "> 3000 nM"]
]}

Tested on TYRO3 (Homo sapiens), the item `COC[C@H](C)Nc1ncc2c(-c3cnn(C4(C(=O)N5CCOCC5)CC4)c3)cc([C@H]3CC[C@H](O)CC3)n2n1` showed IC50 equal to ≤ 100 nM

Hey, TYRO3 (Homo sapiens) data for COCCNCc1ccc(-c2n[nH]c3ncc(-c4ccc5c(c4)CCC(C)(N4CCC[C@H]4C)CC5)cc23)cc1 (some centres unmarked) : IC50 came out at 100 to 1000 nM

Simply: `COC[C@H](C)Nc1ncc2c(-c3ccnc(OC4COC4)c3)cc([C@H]3CC[C@H](O)CC3)n2n1` , TYRO3 (Homo sapiens), IC50 = ≤ 100 nM

Record for `O[C@H]1CC[C@H](c2cnc(OC3CCNCC3)c3cnc(NC4CCC(F)(F)CC4)nc32)CC1` under target or system TYRO3 (Homo sapiens): IC50 reported as 100 to 1000 nM

Measured on TYRO3 (Homo sapiens), `CC(C)C(=O)N1CCC(c2cc(-c3ccc(NC(=O)c4cn(C(C)C)c(=O)n(-c5ccccc5)c4=O)cc3F)c3c(N)ncnn23)CC1` has a documented IC50 of 10 to 100 nM

TYRO3 (Homo sapiens) data for `C[C@@H](Nc1ncc2c(OC3CCOCC3)ncc([C@H]3CC[C@H](O)CC3)c2n1)C(F)F` ; its IC50: 100 to 1000 nM

Item: C[C@H]1CCCN1C1CCc2ccc(-c3cnc4[nH]nc(-c5ccc(S(C)(=O)=O)cc5)c4c3)cc2CC1 (some centres unmarked) | System: TYRO3 (Homo sapiens) | IC50: < 100 nM
